B1: NF2 (merlin) isoform 7, human, full length (507 aa, lacks exons 2-3 = isoform-1 residues 39-121; exon-16 C-terminus), P35240-4 (parent)
chain: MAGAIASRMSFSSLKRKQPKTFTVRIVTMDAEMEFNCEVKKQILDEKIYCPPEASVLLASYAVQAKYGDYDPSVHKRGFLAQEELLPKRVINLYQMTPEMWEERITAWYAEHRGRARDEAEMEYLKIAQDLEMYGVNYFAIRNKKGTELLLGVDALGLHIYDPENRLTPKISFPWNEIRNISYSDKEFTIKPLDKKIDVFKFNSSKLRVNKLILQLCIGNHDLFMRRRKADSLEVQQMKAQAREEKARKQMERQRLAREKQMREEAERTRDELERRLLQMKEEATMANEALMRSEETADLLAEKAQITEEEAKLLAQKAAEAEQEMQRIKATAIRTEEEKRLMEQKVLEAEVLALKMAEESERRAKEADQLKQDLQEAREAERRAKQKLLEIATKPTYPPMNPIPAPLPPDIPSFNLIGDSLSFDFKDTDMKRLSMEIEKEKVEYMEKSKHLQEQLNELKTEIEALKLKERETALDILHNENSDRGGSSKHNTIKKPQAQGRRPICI

variants of: B1; test: reverse yeast two-hybrid deep mutational scan (rY2H-seq): NF2 isoform 7 mutant library as bait mated with wild-type prey strains; selection on medium lacking adenine for non-interacting pairs; NextSeq paired-end sequencing; enrichment vs …; settings: with PIK3R3 (phosphatidylinositol 3-kinase regulatory subunit gamma), Q92569; yeast diploids after mating (RBait_S3 x RPrey_S3), 30 °C, selection for reporter genes on NB agar; human tyrosine kinase ABL2 co-expressed as the active kinase …; HIGHER = WEAKER BINDING (the opposite of display enrichments): higher = stronger loss of interaction: reverse Y2H selects yeast in which bait and prey do NOT interact (growth without adenine), so a …; hits-only table; scale: rY2H score; numbering: uniprot, sequence starts at 1
Measured Property: enrichment

T394S | 1.98
A312K | 2
S361P | 3.03
A358L | 4.62
L214E | 30
Y161K | 5.71
E234K | 1.73
G486S | 2.29

A. I334K
B. R485K
Exercise: compare A and B ; which one has the greater enrichment? Identify your selection by its label. B
(B: 6.26, A: 2.88)
